meta.source: ChEMBL document CHEMBL3885881

Species on record: Rattus norvegicus
ASSAY_PROTOCOL: DrugMatrix - Regimen: Daily Repeat
Type: toxicity, organism-based, Sprague-Dawley
Set-up: regimen Daily Repeat, gender Male, age 6-8 weeks
MEASUREMENT_CONDITIONS: in vivo, po, 0 mg/kg, 72 h, tissue Blood, route oral GAVAGE, dose level Control, time 3 day, vehicle 100 % WATER
MEASUREMENT_NAME: NUCLEATED RED BLOOD CELLS

Prompt line: Provide NUCLEATED RED BLOOD CELLS value for the following compound: CCC1(c2ccccc2)C(=O)NC(=O)NC1=O [PHENOBARBITAL]
Response line: 0.17 /100WBC

Prompt line: # return recorded NUCLEATED RED BLOOD CELLS for entry NN [HYDRAZINE]
Response line: 0.17 /100WBC

Prompt line: Indicate its recorded NUCLEATED RED BLOOD CELLS; the compound in question is Cc1cc(C(C)(C)C)c(O)c(C)c1CC1=NCCN1 [OXYMETAZOLINE]
Response line: 0.17 /100WBC

Prompt line: Identify NUCLEATED RED BLOOD CELLS associated with the compound C[N+](C)(C)CCOC(N)=O.[Cl-] [CARBACHOL]
Response line: 0.67 /100WBC

Prompt line: Kindly indicate its recorded NUCLEATED RED BLOOD CELLS. Item: Cc1cn([C@H]2C=C[C@@H](CO)O2)c(=O)[nH]c1=O [STAVUDINE]
Response line: 0.67 /100WBC

Prompt line: Provide measured NUCLEATED RED BLOOD CELLS value, entry: C1CCN2C[C@@H]3C[C@@H](CN4CCCC[C@@H]34)[C@H]2C1 [SPARTEINE]
Response line: 0 /100WBC

Prompt line: Tell us which NUCLEATED RED BLOOD CELLS value is on record for CC(Cl)(Cl)Cl [TRICHLOROETHANE]
Response line: 0 /100WBC

Prompt line: Answer with the recorded NUCLEATED RED BLOOD CELLS of `CCN(CC)C(=S)SSC(=S)N(CC)CC` only.
Response line: 0 /100WBC
